Target: class A beta-lactamase TEM-1 (Escherichia coli)
Sequence (P62593 24-286 limits assumed): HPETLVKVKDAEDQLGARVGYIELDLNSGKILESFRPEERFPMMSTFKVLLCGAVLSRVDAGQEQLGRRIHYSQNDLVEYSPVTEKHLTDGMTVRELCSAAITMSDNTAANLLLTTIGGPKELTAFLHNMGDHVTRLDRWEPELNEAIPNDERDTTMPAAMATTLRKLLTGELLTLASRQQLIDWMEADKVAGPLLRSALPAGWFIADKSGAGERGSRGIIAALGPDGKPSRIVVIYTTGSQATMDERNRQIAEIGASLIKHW
Test: IC50 determination with nitrocefin, TEM-1
Conditions: pre-incubated 30 min at 37° C., phosphate buffer pH 7.0, nitrocefin
Experimental: The IC50 value represents the concentration of inhibitor required to effect a 50% loss of activity of free enzyme. A standard test for the production of beta-lactamase involves use of the chromogenic cephalosporin, nitrocefin. […] All the enzymes and compounds were dissolved in 50 mM phosphate buffer pH 7.0 and all further dilutions were done with the same buffer solution. […] The initial rate was calculated for all the different solutions.
pIC50: −log10 of the molar value.
reported-property: pIC50

given_smiles=CO[C@H]1CCC[C@H]2C1=C(C(=O)O)N1C(=O)[C@H]([C@H](O)C(F)(F)F)[C@@H]21 assayed_system="class A beta-lactamase TEM-1 (Escherichia coli)" value_reported=5.08
given_smiles=CO[C@H]1CCC[C@H]2C1=C(C(=O)[O-])N1C(=O)[C@H]([C@H](O)CF)[C@@H]21.[Na+] assayed_system="class A beta-lactamase TEM-1 (Escherichia coli)" value_reported=6.30
